Where do these numbers come from? They come from patent US11566007B2.

biological target: NRAS G12C (Homo sapiens (Human), UniProt P01111+P62937, G12C); assay: Ras-Raf (BRAF RBD) disruption / FRET / MOA assay, NRAS G12C; assay type: biochemical; details: read-out: IC50* NRAS G12C FRET data
Sequence (P01111 whole entry G12C): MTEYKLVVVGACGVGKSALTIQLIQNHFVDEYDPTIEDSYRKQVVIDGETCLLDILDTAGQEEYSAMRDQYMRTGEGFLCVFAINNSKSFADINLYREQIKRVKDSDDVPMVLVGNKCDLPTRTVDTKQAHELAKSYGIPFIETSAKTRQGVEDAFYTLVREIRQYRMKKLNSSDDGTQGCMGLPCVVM
Sequence (P62937 whole entry): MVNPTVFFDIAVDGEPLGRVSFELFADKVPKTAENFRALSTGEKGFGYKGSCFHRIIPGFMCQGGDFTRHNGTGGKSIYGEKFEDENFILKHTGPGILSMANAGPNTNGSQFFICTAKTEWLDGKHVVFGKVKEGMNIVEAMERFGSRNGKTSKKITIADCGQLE
pIC50: −log10 of the molar value.
readout-name: pIC50

Examples from the recorded data:
Request: Name the recorded pIC50 for C=CC(=O)N1CC[C@H](C(=O)N(C)[C@H](C(=O)N[C@H]2Cc3cc(O)cc(c3)-c3ccc4c(c3)c(c(-c3cnccc3[C@@H](OC)C3CC3)n4CC)CC(C)(C)COC(=O)[C@@H]3CCCN(N3)C2=O)C(C)C)C1 [Example A274] .
Response: 5.00 to 6.00

Request: What about this compound? CCn1c(-c2cccnc2[C@H](C)OC)c2c3cc(ccc31)-c1cccc(c1)C[C@H](NC(=O)[C@H](C(C)C)N1CO[C@@]3(CCN(C(=O)C#CC(C)(C)N4CCC4)C3)C1=O)C(=O)N1CCC[C@H](N1)C(=O)OCC(C)(C)C2 (atropisomer, axis not shown) [Example A733]
Response: 7.00 to 8.00

Request: What about this compound? C=CC(=O)N1CC[C@H](C(=O)N(C)[C@H](C(=O)N[C@H]2Cc3cc(O)cc(c3)-c3ccc4c(c3)c(c(-c3cncc5c3[C@@H](OC)CC5)n4CC)CC(C)(C)COC(=O)[C@@H]3CCCN(N3)C2=O)C(C)C)C1 [Example A275]
Response: 7.00 to 8.00

Each of the following entries comes with a recorded value; kindly state pIC50 for each.
1. C=CC(=O)N1C[C@@H]2CN(C(=O)N(C)[C@H](C(=O)N[C@H]3Cc4nc(cs4)-c4ccc5c(c4)c(c(-c4cccnc4[C@H](C)OC)n5CC)CC(C)(C)COC(=O)[C@@H]4CCCN(N4)C3=O)C(C)C)[C@@H]2C1 (atropisomer, axis not shown) [Example A561]
2. CCn1c(-c2cccnc2[C@H](C)OC)c2c3cc(ccc31)-c1cc(cc(C(F)F)c1)C[C@H](NC(=O)[C@H](C(C)C)N(C)C(=O)[C@H]1CCN(C(=O)C#CC(C)(C)N3CCC3)C1)C(=O)N1CCC[C@H](N1)C(=O)OCC(C)(C)C2 (atropisomer, axis not shown) [Example A466]
3. CCn1c(-c2cccnc2[C@H](C)OC)c2c3cc(ccc31)-c1cccc(c1)C[C@H](NC(=O)[C@H](C(C)C)N(C)C(=O)[C@H]1CCN(C(=O)C#CC(C)(C)N(C)C)C1)C(=O)N1CCC[C@H](N1)C(=O)OCC(C)(C)C2 (atropisomer, axis not shown) [Example A290]
4. C=CC(=O)N(C)CCN1CCN(C(=O)N(C)[C@H](C(=O)N[C@H]2Cc3cccc(c3)-c3ccc4c(c3)c(c(-c3cccnc3[C@H](C)OC)n4CC)CC(C)(C)COC(=O)[C@@H]3CCCN(N3)C2=O)C(C)C)CC1 (atropisomer, axis not shown) [Example A539]
5. CCn1c(-c2cccnc2[C@H](C)OC)c2c3cc(ccc31)-c1csc(n1)C[C@H](NC(=O)[C@H](C(C)C)N(C)C(=O)N1CCN(C(=O)/C=C/CN(C)C)C[C@@H]1C)C(=O)N1CCC[C@H](N1)C(=O)OCC(C)(C)C2 (atropisomer, axis not shown) [Example A709]
6. C=CC(=O)N1C[C@@H](C(=O)N(C)[C@H](C(=O)N[C@H]2Cc3cccc(c3)-c3ccc4c(c3)c(c(-c3cccnc3[C@H](C)OC)n4CC)CC(C)(C)COC(=O)[C@@H]3CCCN(N3)C2=O)C(C)C)C(C)(C)C1 (atropisomer, axis not shown) [Example A458]
7. C=CC(=O)N1CC2(C1)OCN([C@H](C(=O)N[C@H]1Cc3cccc(c3)-c3ccc4c(c3)c(c(-c3cccnc3[C@H](C)OC)n4CC)CC(C)(C)COC(=O)[C@@H]3CCCN(N3)C1=O)C(C)C)C2=O (atropisomer, axis not shown) [Example A452]
8. CCn1c(-c2cccnc2[C@H](C)OC)c2c3cc(ccc31)-c1csc(n1)C[C@H](NC(=O)C[C@@H]1COC3(CN(C(=O)C#CC(C)(C)N(C)C)C3)O1)C(=O)N1CCC[C@H](N1)C(=O)OCC(C)(C)C2 (atropisomer, axis not shown) [Example A691]

Response:
6.00 to 7.00
7.00 to 8.00
> 8.00
6.00 to 7.00
7.00 to 8.00
7.00 to 8.00
7.00 to 8.00
> 8.00
